# inhibition at 10 µM per record follows
Target: Skp2 (Homo sapiens)
Sequence (Q13309 whole entry, species assumed): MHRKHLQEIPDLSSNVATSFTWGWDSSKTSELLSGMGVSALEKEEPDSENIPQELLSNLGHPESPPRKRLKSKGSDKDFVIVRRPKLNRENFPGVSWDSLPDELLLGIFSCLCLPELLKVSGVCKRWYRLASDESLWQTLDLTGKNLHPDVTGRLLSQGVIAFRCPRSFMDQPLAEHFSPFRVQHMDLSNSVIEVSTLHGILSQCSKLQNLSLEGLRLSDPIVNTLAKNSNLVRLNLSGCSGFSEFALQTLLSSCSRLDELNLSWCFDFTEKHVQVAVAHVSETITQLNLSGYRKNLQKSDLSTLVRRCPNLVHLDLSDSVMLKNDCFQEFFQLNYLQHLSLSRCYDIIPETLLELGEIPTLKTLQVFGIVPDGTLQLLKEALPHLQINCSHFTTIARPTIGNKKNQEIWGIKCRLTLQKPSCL
Sequence (P63208 whole entry partner, species assumed): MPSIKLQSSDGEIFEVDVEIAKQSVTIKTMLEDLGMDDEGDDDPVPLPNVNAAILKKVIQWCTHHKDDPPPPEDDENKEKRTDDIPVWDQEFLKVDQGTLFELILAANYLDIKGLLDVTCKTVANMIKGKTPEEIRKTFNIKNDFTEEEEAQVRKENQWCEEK
Sequence (Q13616 whole entry partner, species assumed): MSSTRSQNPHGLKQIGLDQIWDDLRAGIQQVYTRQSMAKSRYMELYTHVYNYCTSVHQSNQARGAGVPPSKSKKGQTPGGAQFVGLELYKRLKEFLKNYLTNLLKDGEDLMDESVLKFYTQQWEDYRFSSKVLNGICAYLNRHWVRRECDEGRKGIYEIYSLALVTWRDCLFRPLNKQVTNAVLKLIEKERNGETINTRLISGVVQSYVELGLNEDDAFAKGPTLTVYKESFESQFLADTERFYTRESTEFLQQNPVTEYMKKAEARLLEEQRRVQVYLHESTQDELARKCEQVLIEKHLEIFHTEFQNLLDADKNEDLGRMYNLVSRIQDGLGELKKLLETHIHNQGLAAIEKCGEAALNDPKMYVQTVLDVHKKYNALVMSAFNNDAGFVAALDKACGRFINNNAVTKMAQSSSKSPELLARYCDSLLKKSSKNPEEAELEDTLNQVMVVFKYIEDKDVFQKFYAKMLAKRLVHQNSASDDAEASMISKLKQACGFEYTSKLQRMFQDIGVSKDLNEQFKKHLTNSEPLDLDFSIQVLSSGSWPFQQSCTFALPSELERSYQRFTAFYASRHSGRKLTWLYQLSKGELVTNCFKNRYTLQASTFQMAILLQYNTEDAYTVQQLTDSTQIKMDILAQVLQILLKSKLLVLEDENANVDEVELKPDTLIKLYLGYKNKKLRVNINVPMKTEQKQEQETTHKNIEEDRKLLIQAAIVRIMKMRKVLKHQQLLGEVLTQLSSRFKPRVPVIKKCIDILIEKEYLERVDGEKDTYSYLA
Sequence (P62877 whole entry partner, species assumed): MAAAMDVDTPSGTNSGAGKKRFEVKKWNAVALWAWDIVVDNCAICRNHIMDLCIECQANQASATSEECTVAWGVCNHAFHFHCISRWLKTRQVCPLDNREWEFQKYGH
Assay: Selectivity assay vs other E3s: Skp2
Assay type: biochemical
Details: read-out: % Inhibition Skp2 @ 10 μM
Protocol: βTrCP Ubiquitination Assay and Selectivity Assays Master mixes were prepared in a 50 mM Herpes buffer at pH 7.5, in 75 mM NaCl and 1 mM DTT without Mg or ATP and peptides were added to a final concentration of 100 μM. Reactions were incubated at room temperature for 30 minutes and then Mg/ATP was added to the mix. Reactions were further incubated for an additional 60 minutes and then stopped by adding SDS gel loading buffer and boiled for 5 minutes. […]
Non-standard residues stand in square brackets, D forms with d. Residues, ends and D or L forms follow the SMILES beside them. *: point of attachment. Phe(3-F) = N[C@@H](Cc1cccc(F)c1)C(=O)O; pS = N[C@@H](COP(=O)(O)O)C(=O)O; X2 = COc1ccc(S(=O)(=O)*)cc1OC
Give just the number in %; leave the unit off.

>>> experimental_value("COc1ccc(S(=O)(=O)N[C@H](CC(=O)O)C(=O)N[C@@H](CCC(=O)O)C(=O)NCC(=O)N[C@@H](Cc2cccc(F)c2)C(=O)N[C@@H](Cc2c[nH]c3ccccc23)C(=O)N[C@@H](CCC(=O)O)C(N)=O)cc1OC [UBP029, 3,4-(MeO)2-PhSO2-dEGF(3F)WE-NH2] (X2-[dD]EG[Phe(3-F)]WE-NH2)")
19

Next up:
Per the record, CC[C@H](C)[C@H](NC(=O)CNC(=O)[C@H](COP(=O)(O)O)NC(=O)[C@@H](N)CC(=O)O)C(=O)N[C@@H](Cc1ccccc1)C(=O)N[C@@H](CCC(=O)O)C(N)=O [UBP001, DpSGIFE-NH2] (H-D[pS]GIFE-NH2) has inhibition at 10 µM of 8

---

Target: βTrCP (Homo sapiens)
Assay: Fluorescence polarisation (FP) binding assay with fluorescein-tagged IκB peptide
Details: Table 11, with spread; read-out: FP IC50/μM
Starred links: 1 amine or outer side, 2 acyl side, 3 side chain; linkers in the order of their positions; H or OH if unused. Non-standard residues stand in square brackets, D forms with d. Residues, ends and D or L forms follow the SMILES beside them. *: point of attachment. Phe(4-NO2) = N[C@@H](Cc1ccc([N+](=O)[O-])cc1)C(=O)O; Benzenesulfonyl(4-OMe) = COc1ccc(S(=O)(=O)*)cc1; Phe(3-F) = N[C@@H](Cc1cccc(F)c1)C(=O)O; Maleoyl = O=C(/C=C\C(=O)[*:2])[*:1]; X1 = CCCCOc1ccc(S(=O)(=O)*)cc1; Tos = Cc1ccc(S(=O)(=O)*)cc1; Moc = COC(=O)*
# IC50 per record follows
Give just the number in µM; leave the unit off.

>>> experimental_value("CCCCOc1ccc(S(=O)(=O)N[C@H](CC(=O)O)C(=O)N[C@@H](CCC(=O)O)C(=O)NCC(=O)N[C@@H](Cc2cccc(F)c2)C(=O)N[C@@H](Cc2c[nH]c3ccccc23)C(=O)N[C@@H](CCC(=O)O)C(N)=O)cc1 [UBP030, 4-(BuO)-PhSO2-dEGF(3F)WE-NH2] (X1-[dD]EG[Phe(3-F)]WE-NH2)")
0.056
>>> experimental_value("COc1ccc(S(=O)(=O)N[C@@H](CC(=O)O)C(=O)N[C@@H](CCC(=O)O)C(=O)NCC(=O)N[C@@H](Cc2cccc(F)c2)C(=O)N[C@@H](Cc2c[nH]c3ccccc23)C(=O)N[C@@H](CCC(=O)O)C(N)=O)cc1 [4-(MeO)-PhSO2-DEGF(3F)WE-NH2] ({Benzenesulfonyl(4-OMe)}-DEG[Phe(3-F)]WE-NH2)")
0.027
>>> experimental_value("NC(=O)[C@H](CCC(=O)O)NC(=O)[C@H](Cc1ccc([N+](=O)[O-])cc1)NC(=O)[C@H](Cc1cccc(F)c1)NC(=O)CNC(=O)[C@H](CCC(=O)O)NC(=O)/C=C\\C(=O)O [UBP008, Mal-EGF(3F)F(4NO2)E-NH2] (Maleoyl-EG[Phe(3-F)][Phe(4-NO2)]E-NH2)")
2.17
>>> experimental_value("Cc1ccc(S(=O)(=O)N[C@H](CC(=O)O)C(=O)N[C@@H](CC(=O)O)C(=O)NCC(=O)N[C@@H](Cc2cccc(F)c2)C(=O)N[C@@H](Cc2c[nH]c3ccccc23)C(=O)N[C@@H](CC(=O)O)C(N)=O)cc1 [UBP028, Ts-dDGF(3F)WD-NH2] (Tos-[dD]DG[Phe(3-F)]WD-NH2)")
0.081

Per the record, COC(=O)N[C@H](CC(=O)O)C(=O)N[C@@H](CCC(=O)O)C(=O)NCC(=O)N[C@@H](Cc1cccc(F)c1)C(=O)N[C@@H](Cc1c[nH]c2ccccc12)C(=O)N[C@@H](CCC(=O)O)C(N)=O [UBP020, MeO(CO)-dEGF(3F)WE-NH2] (Moc-[dD]EG[Phe(3-F)]WE-NH2) has IC50 of 0.076

---

Target: βTrCP (Homo sapiens, UniProt Q9Y297)
Sequence (Q9Y297 1-605): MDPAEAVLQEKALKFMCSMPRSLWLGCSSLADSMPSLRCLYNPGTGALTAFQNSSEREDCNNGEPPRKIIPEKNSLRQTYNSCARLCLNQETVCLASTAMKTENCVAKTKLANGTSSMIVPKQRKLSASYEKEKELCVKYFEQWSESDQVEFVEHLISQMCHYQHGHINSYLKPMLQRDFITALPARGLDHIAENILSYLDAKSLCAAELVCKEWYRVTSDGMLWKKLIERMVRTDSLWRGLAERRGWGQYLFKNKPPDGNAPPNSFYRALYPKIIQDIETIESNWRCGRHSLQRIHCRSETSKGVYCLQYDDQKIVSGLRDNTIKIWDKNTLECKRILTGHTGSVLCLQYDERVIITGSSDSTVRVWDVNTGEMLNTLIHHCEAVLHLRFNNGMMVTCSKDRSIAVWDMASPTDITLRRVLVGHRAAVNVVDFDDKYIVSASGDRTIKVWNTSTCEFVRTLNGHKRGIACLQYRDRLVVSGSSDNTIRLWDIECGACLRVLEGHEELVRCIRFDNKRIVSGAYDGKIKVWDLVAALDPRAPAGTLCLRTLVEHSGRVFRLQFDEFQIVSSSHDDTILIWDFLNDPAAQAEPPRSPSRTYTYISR
Test: Biotin pull down assay with biotinylated IκB peptide
Format: binding
Conditions: 10 μM compound
Starred links: 1 amine or outer side, 2 acyl side, 3 side chain; linkers in the order of their positions; H or OH if unused. Non-standard residues stand in square brackets, D forms with d. Residues, ends and D or L forms follow the SMILES beside them. *: point of attachment. Phe(4-NO2) = N[C@@H](Cc1ccc([N+](=O)[O-])cc1)C(=O)O; Phe(3-F) = N[C@@H](Cc1cccc(F)c1)C(=O)O; Phe(2-F) = N[C@@H](Cc1ccccc1F)C(=O)O; pS = N[C@@H](COP(=O)(O)O)C(=O)O; Suc = O=C(CCC(=O)[*:2])[*:1]; Tos = Cc1ccc(S(=O)(=O)*)cc1; Bz = O=C(c1ccccc1)*
ASSAY_ENDPOINT: Biotin Pulldown Assay 10 μM

Solved entries:
>>> experimental_value("Cc1ccc(S(=O)(=O)N[C@H](CC(=O)O)C(=O)N[C@@H](CC(=O)O)C(=O)NCC(=O)N[C@@H](Cc2cccc(F)c2)C(=O)N[C@@H](Cc2c[nH]c3ccccc23)C(=O)N[C@@H](CC(=O)O)C(N)=O)cc1 [UBP028, Ts-dDGF(3F)WD-NH2] (Tos-[dD]DG[Phe(3-F)]WD-NH2)")
"reduces/"
>>> experimental_value("NC(=O)[C@H](CCC(=O)O)NC(=O)[C@H](Cc1c[nH]c2ccccc12)NC(=O)[C@H](Cc1cccc(F)c1)NC(=O)CNC(=O)[C@H](CCC(=O)O)NC(=O)[C@@H](CC(=O)O)NC(=O)c1ccccc1 [UBP018, Bz-dEGF(3F)WE-NH2] (Bz-[dD]EG[Phe(3-F)]WE-NH2)")
"reduces/"
>>> experimental_value("CC[C@H](C)[C@H](NC(=O)CNC(=O)[C@H](COP(=O)(O)O)NC(=O)[C@@H](N)CC(=O)O)C(=O)N[C@@H](Cc1ccccc1)C(=O)N[C@@H](CCC(=O)O)C(N)=O [UBP001, DpSGIFE-NH2] (H-D[pS]GIFE-NH2)")
"reduces/"
>>> experimental_value("NC(=O)[C@H](CCC(=O)O)NC(=O)[C@H](Cc1ccc([N+](=O)[O-])cc1)NC(=O)[C@H](Cc1cccc(F)c1)NC(=O)CNC(=O)[C@H](CCC(=O)O)NC(=O)CCC(=O)O [UBP004, Suc-EGF(3F)F(4NO2)E-NH2] (Suc-EG[Phe(3-F)][Phe(4-NO2)]E-NH2)")
"reduces/"

Test item NC(=O)[C@H](CCC(=O)O)NC(=O)[C@H](Cc1ccc([N+](=O)[O-])cc1)NC(=O)[C@H](Cc1ccccc1F)NC(=O)CNC(=O)[C@H](CCC(=O)O)NC(=O)CCC(=O)O [UBP003, Suc-EGF(2F)F(4NO2)E-NH2] (Suc-EG[Phe(2-F)][Phe(4-NO2)]E-NH2) ; βTrCP (Homo sapiens, UniProt Q9Y297); reported Biotin Pulldown Assay 10 μM was no effect/

Test item COc1ccc(C[C@H](NC(=O)[C@H](Cc2ccccc2F)NC(=O)CNC(=O)[C@H](CCC(=O)O)NC(=O)CCC(=O)O)C(=O)N[C@@H](CCC(=O)O)C(N)=O)cc1 [UBP006, Suc-EGF(2F)Y(Me)E-NH2] (Suc-EG[Phe(2-F)]Y(Me)E-NH2) ; βTrCP (Homo sapiens, UniProt Q9Y297); reported Biotin Pulldown Assay 10 μM was no effect/

Test item NC(=O)[C@H](CCC(=O)O)NC(=O)[C@H](Cc1ccc([N+](=O)[O-])cc1)NC(=O)[C@H](Cc1ccc(O)cc1)NC(=O)CNC(=O)[C@H](CCC(=O)O)NC(=O)CCC(=O)O [UBP013, Suc-EGYF(4NO2)E-NH2] (Suc-EGY[Phe(4-NO2)]E-NH2) ; βTrCP (Homo sapiens, UniProt Q9Y297); reported Biotin Pulldown Assay 10 μM was no effect/

Test item CC(=O)N[C@H](CC(=O)O)C(=O)N[C@@H](CCC(=O)O)C(=O)NCC(=O)N[C@@H](Cc1cccc(F)c1)C(=O)N[C@@H](Cc1c[nH]c2ccccc12)C(=O)N[C@@H](CCC(=O)O)C(N)=O [UBP017, Ac-dEGF(3F)WE-NH2] (Ac-[dD]EG[Phe(3-F)]WE-NH2) ; βTrCP (Homo sapiens, UniProt Q9Y297); reported Biotin Pulldown Assay 10 μM was reduces/

These measurements were taken from patent US20190106460A1.
